B1: tRNA (parent)
chain: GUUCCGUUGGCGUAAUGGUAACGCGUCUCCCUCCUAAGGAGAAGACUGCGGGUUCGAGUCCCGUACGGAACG

# Variants of: B1
# Assay details: yeast fitness relative to wild type (ratio to wild type); higher = fitter; tRNA-Arg(CCU), competitive growth, 37 C, YPD
Variants at the floor of the assay were thinned out.
Please note: satisfied applies when yeast fitness is 0.8 or greater, and not satisfied applies otherwise.

Decide: yeast fitness of C4G C30A A42U C55U C66A >= 0.8?
not satisfied

Does C31U C61A C62U A65U have a reported yeast fitness of at least 0.8?
not satisfied

Confirm if yeast fitness reported for the variant C27U C31G A43C C49G G52C U59A G68A is 0.8 or above.
not satisfied

Is the recorded value of yeast fitness equal to or greater than 0.8 for this variant? G9A C11A A14C U16A C31A C62U
not satisfied

Decide: yeast fitness of U8C G12A G48C >= 0.8?
not satisfied

Item C30U C46U G52C with yeast fitness of 0.8 or above?
not satisfied

Dear colleague, could you confirm whether C4A A40U has yeast fitness at or above 0.8?
satisfied

Reported yeast fitness at or above 0.8? G17A C31U U35C A57G
not satisfied

Test whether the variant A21G A69U records yeast fitness of 0.8 or higher.
satisfied

State whether the measured yeast fitness reaches 0.8, counting equality as reaching it, for U13A A15C U54G C66G G67C
not satisfied

Does the variant A15G U64A have recorded yeast fitness that is 0.8 or more?
not satisfied

Does the variant G12A C24A A36U G51C C55U A69C A70U have recorded yeast fitness that is 0.8 or more?
not satisfied

Given the entry C11G G56A , answer whether its yeast fitness meets or surpasses 0.8.
not satisfied

Could you tell me if the measured yeast fitness of C46U C66G G67U reaches 0.8 or more?
not satisfied

Determine whether measured yeast fitness meets or exceeds 0.8 for A15G A45U
satisfied

Reported yeast fitness at or above 0.8? U7C G9A U13C A21U G38C C46A
not satisfied

Given the entry A36C G38C A45G G50C , answer whether its yeast fitness meets or surpasses 0.8.
not satisfied

Check if yeast fitness >= 0.8 (inclusive). Item: C31U U35C A40G A65U
not satisfied

Decide: yeast fitness of `G38U` >= 0.8?
satisfied

Hi team, for A20G A40C A42U A43C G48A A69C , is the recorded yeast fitness at or above 0.8?
not satisfied

Please indicate if the recorded yeast fitness for G9C A15G U16C C29A U47C meets or exceeds 0.8.
not satisfied

Answer whether yeast fitness of A14C A20G is greater than or equal to 0.8.
not satisfied

State whether the measured yeast fitness reaches 0.8, counting equality as reaching it, for U28G A70U
satisfied

Hello, I need to know if C5A G39A U47A C55U G67A A69G has measured yeast fitness not below 0.8. Thanks!
not satisfied

Please indicate if the recorded yeast fitness for U19C C61G meets or exceeds 0.8.
not satisfied

Given the entry `C4U` , answer whether its yeast fitness meets or surpasses 0.8.
satisfied

Hi team, for G48C C49U C55U , is the recorded yeast fitness at or above 0.8?
not satisfied

Hi, just wondering whether G18C C22G G56A shows yeast fitness of 0.8 or higher.
not satisfied

Could you please find out whether C27U C49G has yeast fitness that meets 0.8 or exceeds it?
satisfied

Assess whether reported yeast fitness for A37C A42U C49A sits at 0.8 or higher.
not satisfied

Given C31A G39C , state whether its yeast fitness is at least 0.8.
not satisfied

Quick check: does C5G U8G A20C have yeast fitness greater than or equal to 0.8?
not satisfied

yeast fitness >= 0.8 for G12C G58A C62U A69C ?
not satisfied

Determine whether measured yeast fitness meets or exceeds 0.8 for G9A G25A A43G A65U
not satisfied

Decide: is the reported value of yeast fitness for U2A C22U A40C G58C C66U equal to or greater than 0.8?
not satisfied

Could you verify whether the entry C5U C22G C29A A45U G58C shows yeast fitness of no less than 0.8?
not satisfied

Could you please find out whether G9A A40G has yeast fitness that meets 0.8 or exceeds it?
satisfied

Would you say U2C G50U shows yeast fitness at minimum 0.8?
satisfied

Please tell me: is the variant G18C A57U at or over 0.8 in terms of yeast fitness?
not satisfied

Does the variant U2C C4A U28C U53C have recorded yeast fitness that is 0.8 or more?
not satisfied

Does yeast fitness meet or surpass 0.8 for C4G G50C ?
not satisfied

// inclusive: yeast fitness at least 0.8? input: U13C C27A C61A
not satisfied

Check this variant for yeast fitness at or above 0.8: U8C C46U G51C
not satisfied

Dear colleague, could you confirm whether U7A G23C C31U has yeast fitness at or above 0.8?
not satisfied

Dear colleague, could you confirm whether C5G A40C has yeast fitness at or above 0.8?
not satisfied

API: above_or_equal(metric=yeast fitness, cutoff=0.8) for item C11U A45U C66A
not satisfied

Does U13G U16C G63C have a reported yeast fitness of at least 0.8?
not satisfied

Decide: is the reported value of yeast fitness for A37G G44C A45C G50A C55G C66A equal to or greater than 0.8?
not satisfied

Record C5G G9C C33A U35C C46U C49U G52C C61U C66U ; criterion: yeast fitness no lower than 0.8. Met?
not satisfied

Is reported yeast fitness greater than or equal to 0.8 here: C11A U16A C29G A42C G51A
not satisfied

Please tell me: is the variant C5U A14C U19C at or over 0.8 in terms of yeast fitness?
not satisfied

Is reported yeast fitness greater than or equal to 0.8 here: A20C U64A G67A
not satisfied

Could you verify whether the entry U7A C27A C66U shows yeast fitness of no less than 0.8?
not satisfied

Dear colleague, could you confirm whether A14U A36C U53C A69C has yeast fitness at or above 0.8?
not satisfied

Determine whether this variant has yeast fitness no lower than 0.8: G25C U28C A69U
not satisfied

Determine whether this variant has yeast fitness no lower than 0.8: G18C G44A G63C A65C
not satisfied

// inclusive: yeast fitness at least 0.8? input: U7G U13C C31U
satisfied

Textbook exercise: given the entry A20U C22U , state whether its yeast fitness is greater than or equal to 0.8.
not satisfied

Tell me whether yeast fitness is at least 0.8 here: C4G C5A U28G
not satisfied

Hello, I need to know if C5U C22U A37C C55A A69U has measured yeast fitness not below 0.8. Thanks!
not satisfied

In plain terms: is recorded yeast fitness at least 0.8 for C55U A69C ?
not satisfied

Does C5G A15U U53A have a reported yeast fitness of at least 0.8?
not satisfied

Determine whether this variant has yeast fitness no lower than 0.8: U32C U35C C49U
not satisfied

Please indicate if the recorded yeast fitness for U7G A21C G44C A69U meets or exceeds 0.8.
not satisfied

Does yeast fitness meet or surpass 0.8 for C4G C22A ?
not satisfied

Determine whether measured yeast fitness meets or exceeds 0.8 for U2C C30U C31U
not satisfied

Could you tell me if the measured yeast fitness of U2C U47A C55G reaches 0.8 or more?
not satisfied

Is the recorded value of yeast fitness equal to or greater than 0.8 for this variant? G12C C22U U54C
not satisfied

Textbook exercise: given the entry U13G A14U U16A G17U , state whether its yeast fitness is greater than or equal to 0.8.
not satisfied

API: above_or_equal(metric=yeast fitness, cutoff=0.8) for item C22G G50A
satisfied

State whether the measured yeast fitness reaches 0.8, counting equality as reaching it, for C34A U47C G51A
not satisfied
